Target: T1, human high affinity trimeric IL-2 receptor (CD25/CD122/CD132) (human, UniProt P01589 22-272; P14784 27-551; P31785 23-369)
T1 sequence 1: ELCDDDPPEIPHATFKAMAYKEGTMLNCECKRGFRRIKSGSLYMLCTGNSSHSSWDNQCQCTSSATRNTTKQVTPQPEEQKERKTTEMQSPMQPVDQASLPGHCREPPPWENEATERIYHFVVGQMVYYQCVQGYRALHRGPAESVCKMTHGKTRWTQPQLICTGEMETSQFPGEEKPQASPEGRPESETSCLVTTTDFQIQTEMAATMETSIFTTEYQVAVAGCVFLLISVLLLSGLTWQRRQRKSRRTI
T1 sequence 2: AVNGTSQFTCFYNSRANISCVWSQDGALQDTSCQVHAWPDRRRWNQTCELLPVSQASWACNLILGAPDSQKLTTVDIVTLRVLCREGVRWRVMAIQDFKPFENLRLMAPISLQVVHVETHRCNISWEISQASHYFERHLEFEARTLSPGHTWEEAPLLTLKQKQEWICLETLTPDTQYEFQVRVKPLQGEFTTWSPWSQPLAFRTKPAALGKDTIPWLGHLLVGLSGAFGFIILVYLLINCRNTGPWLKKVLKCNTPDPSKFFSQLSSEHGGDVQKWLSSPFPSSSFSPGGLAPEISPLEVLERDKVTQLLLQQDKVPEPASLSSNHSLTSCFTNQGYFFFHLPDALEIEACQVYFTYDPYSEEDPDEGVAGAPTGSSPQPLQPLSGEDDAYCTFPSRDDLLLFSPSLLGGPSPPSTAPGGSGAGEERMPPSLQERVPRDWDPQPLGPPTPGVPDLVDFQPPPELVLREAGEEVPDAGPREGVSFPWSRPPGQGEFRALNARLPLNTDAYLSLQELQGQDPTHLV
T1 sequence 3: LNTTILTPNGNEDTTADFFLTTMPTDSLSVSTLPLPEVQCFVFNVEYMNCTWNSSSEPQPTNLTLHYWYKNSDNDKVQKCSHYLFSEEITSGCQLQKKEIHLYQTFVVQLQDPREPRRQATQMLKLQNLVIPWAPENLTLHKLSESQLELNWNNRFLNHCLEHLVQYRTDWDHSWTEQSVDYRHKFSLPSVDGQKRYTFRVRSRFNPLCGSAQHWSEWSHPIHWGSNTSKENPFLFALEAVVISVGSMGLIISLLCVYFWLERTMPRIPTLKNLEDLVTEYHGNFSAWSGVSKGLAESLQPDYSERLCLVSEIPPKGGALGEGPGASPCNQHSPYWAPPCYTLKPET
Assay: cell-based or functional assay
recorded-endpoint: pSTAT5 ratio YT CD25/YT, dilution factor 64, lower table

P: RSH (ligand) cytokine: APTSSSTKKTQLQLEHLRLDLSMILNGINNYKNPKLTRMLTFKFYMPKKATELKHLQCLEEELKPLEEVLNLAQSKNFHLRPRDLISNINVIVLELKGSETTFMCEYADETATIVEFLNRWITFCHSIISTLT
Q: RHH (ligand) cytokine: APTSSSTKKTQLQLEHLRLDLHMILNGINNYKNPKLTRMLTFKFYMPKKATELKHLQCLEEELKPLEEVLNLAQSKNFHLRPRDLISNINVIVLELKGSETTFMCEYADETATIVEFLNRWITFCHSIISTLT
Which value of pSTAT5 ratio YT CD25/YT, dilution factor 64, lower table is greater, the one for P or the one for Q ? # reply format: chosen label
Q

Value source: patent US20210275641A1
